Reference source: ChEMBL document CHEMBL1201862

Tested on: TK-10
Assay: NCI tumour cell line growth inhibition, 48 h
Activity calls are given as the source filed them. No stated cut-off is given here; in the data, active = GI50 up to about 1.1 µM and inactive = higher.
recorded_endpoint: GI50

>  <compound>
Cc1ccc(N2CN3OC(=O)N(c4ccccc4)[C@@]3(c3ccccc3)C2)cc1

>  <test_value>
50.5 µM (inactive)

$$$$
>  <compound>
CC(C)=C[C@@H]1C[C@H](C)[C@H]2CC[C@H](C)[C@H]3C(=O)C(O)=C(C)C(=O)[C@]123

>  <test_value>
> 100 µM (inactive)

$$$$
>  <compound>
O=C1c2ccccc2C(=O)c2sc(Nc3ccc([N+](=O)[O-])cc3)nc21

>  <test_value>
12.2 µM (inactive)

$$$$
>  <compound>
C=C(Br)CN(CC(=C)Br)C(C)=O

>  <test_value>
> 100 µM (inactive)

$$$$
>  <compound>
CN(C)c1ccc(C2SCC(=O)N2c2nc3cc4sc(N5C(=O)CSC5c5ccc(N(C)C)cc5)nc4cc3s2)cc1 (centres undefined)

>  <test_value>
> 100 µM (inactive)

$$$$
>  <compound>
NC(=O)c1oc([N+](=O)[O-])c(-c2ccccc2)c1-c1ccccc1

>  <test_value>
28.6 µM (inactive)

$$$$
>  <compound>
CC(C)=CCc1c(O)c(CC=C(C)C)c2oc(-c3ccc(O)cc3O)c(CC=C(C)C)c(=O)c2c1O

>  <test_value>
8.85 µM (inactive)

$$$$
>  <compound>
O=C(c1ccccc1)c1c(-c2ccccc2)[nH]n(-c2ccc([N+](=O)[O-])cc2)c(=O)c1=O

>  <test_value>
91.8 µM (inactive)

$$$$
>  <compound>
CCOC(=O)C(SCCO)C(C(=O)OCC)n1ccc(=O)[nH]c1=O (centres undefined)

>  <test_value>
> 56.8 µM (inactive)

$$$$
